# test method notes: Pharmacokinetic experiment in rats
# Assay type: in vivo, Sprague-Dawley rats
# test conditions: male, Sprague-Dawley, plasma; rat, IV 3 mg/kg
Decide using Cmax: a value greater than or equal to 2000 ng/mL is t, a smaller one is f.

molecule | label class
C[C@H]1Nc2ccn3ncc(c3n2)NC(=O)CCOc2ccc(F)cc21 [Compound T-1] | t
O=C1CCOc2ccc(F)cc2[C@H]2CCCN2c2ccn3ncc(c3n2)N1 [Compound L-1-A] | t
C[C@H]1CNC(=O)c2cnn3ccc(nc23)N[C@H](C)c2cc(F)ccc2O1 [TPX-0005, reference compound] | t
C[C@@H]1CCc2ncc(F)cc2[C@H]2CCCN2c2ccn3ncc(c3n2)C(=O)N1 [LOXO-195, reference compound] | t

Lookup: Reported Cmax at or above 2000 ng/mL? C[C@H]1CC(=O)Nc2cnn3ccc(nc23)N[C@H](C)c2cc(F)ccc2O1 [Compound T-2-A]
Found: t

Lookup: Is the recorded value of Cmax equal to or greater than 2000 ng/mL for this molecule? C[C@H]1CC(=O)Nc2cnn3ccc(nc23)N2CCC[C@@H]2c2cc(F)ccc2O1 [Compound L-2-A]
Found: f

====

# assayed target: TRKA kinase (Homo sapiens, UniProt P04629)
# Sequence (P04629 33-796): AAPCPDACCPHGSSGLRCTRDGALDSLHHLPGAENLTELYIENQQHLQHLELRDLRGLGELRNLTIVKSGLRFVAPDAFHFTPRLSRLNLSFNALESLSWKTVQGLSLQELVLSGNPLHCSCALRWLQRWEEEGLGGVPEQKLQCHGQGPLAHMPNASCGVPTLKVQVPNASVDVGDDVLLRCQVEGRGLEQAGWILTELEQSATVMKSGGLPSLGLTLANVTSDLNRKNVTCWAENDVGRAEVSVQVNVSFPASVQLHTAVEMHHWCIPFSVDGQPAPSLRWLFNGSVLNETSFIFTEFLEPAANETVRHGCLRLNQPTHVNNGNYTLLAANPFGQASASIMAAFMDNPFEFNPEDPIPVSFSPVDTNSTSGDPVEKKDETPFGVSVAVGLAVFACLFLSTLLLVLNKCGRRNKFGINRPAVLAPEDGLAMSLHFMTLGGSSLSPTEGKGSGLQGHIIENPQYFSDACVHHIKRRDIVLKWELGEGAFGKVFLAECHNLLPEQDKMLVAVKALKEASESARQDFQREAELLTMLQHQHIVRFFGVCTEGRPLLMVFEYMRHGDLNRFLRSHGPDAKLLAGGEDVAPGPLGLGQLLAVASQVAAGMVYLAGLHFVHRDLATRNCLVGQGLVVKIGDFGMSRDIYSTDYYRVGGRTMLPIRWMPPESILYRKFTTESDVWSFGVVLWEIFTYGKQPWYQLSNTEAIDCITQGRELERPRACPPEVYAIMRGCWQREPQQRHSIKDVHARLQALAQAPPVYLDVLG
# test method notes: Biochemical kinase analysis (HTRF), TRKA
# test conditions: 23° C., read-out: Kinase IC50 (nM) TRK A
Assign IC50 to each entry below.
Answers are plain numbers, in nM.

compound | result unit | IC50
C[C@H]1CC(=O)Nc2cnn3ccc(nc23)N[C@H](C)c2cc(F)ccc2O1 [Compound T-2-A] | nM | 0.19
O=C1CCOc2ccc(F)cc2[C@@H]2CCCN2c2ccn3ncc(c3n2)N1 [Compound L-1-B] | nM | 21.1

Attention now shifts to the item below.
The compound C[C@H]1Nc2ccn3ncc(c3n2)NC(=O)NCCOc2ccc(F)cc21 [Compound T-4] , when measured on TRKA kinase (Homo sapiens, UniProt P04629), yielded IC50 of 4.91

====

# assayed target: TRKA kinase (Homo sapiens)
# test method notes: Biochemical kinase analysis (HTRF), TRKA
# test conditions: 23° C., read-out: Kinase IC50 (nM) TRK A
endpoint name: IC50 (nM)
Answers are plain numbers, in nM.

Example cases with answers are listed next.
compound | result unit | IC50
C[C@H]1CC(=O)Nc2cnn3ccc(nc23)N2CCC[C@H]2c2cc(F)ccc2O1 | nM | 0.41
O=C1CCOc2ccc(F)cc2C2CCCN2c2ccn3ncc(c3n2)N1 (racemic) | nM | 0.17
C[C@@H]1Nc2ccn3ncc(c3n2)NC(=O)C[C@H](C)Oc2ccc(F)cc21 | nM | 0.36
C[C@H]1CC(=O)Nc2cnn3ccc(nc23)N2CCC[C@@H]2c2cc(F)ccc2O1 | nM | 0.17
C[C@H]1Nc2ccn3ncc(c3n2)NC(=O)C(C)(C)COc2ccc(F)cc21 | nM | 0.34

Below are some compounds; for each one, tell me its IC50.
1. C[C@H]1Nc2ccn3ncc(c3n2)NC(=O)NCCCc2ccc(F)cc21
2. O=C1CCOc2ccc(F)cc2[C@H]2CCCN2c2ccn3ncc(c3n2)N1

Found:
1: 93.9; 2: 0.18

====

# test method notes: Pharmacokinetic experiment in rats
# Type: in vivo, Sprague-Dawley rats
# test conditions: male, Sprague-Dawley, plasma; rat, PO 10 mg/kg
So basically: Tmax at 2 h or higher? That is 1.0. Lower than 2 h? That is 0.0.

Worked cases, answers included:
compound | label class
C[C@@H]1CCc2ncc(F)cc2[C@H]2CCCN2c2ccn3ncc(c3n2)C(=O)N1 [LOXO-195, reference compound] | 0.0
C[C@H]1CNC(=O)c2cnn3ccc(nc23)N[C@H](C)c2cc(F)ccc2O1 [TPX-0005, reference compound] | 0.0
O=C1CCOc2ccc(F)cc2[C@H]2CCCN2c2ccn3ncc(c3n2)N1 [Compound L-1-A] | 0.0
C[C@H]1CC(=O)Nc2cnn3ccc(nc23)N[C@H](C)c2cc(F)ccc2O1 [Compound T-2-A] | 1.0
C[C@H]1CC(=O)Nc2cnn3ccc(nc23)N2CCC[C@@H]2c2cc(F)ccc2O1 [Compound L-2-A] | 0.0

Now consider a different compound.
Lookup: Does the reported Tmax for C[C@H]1Nc2ccn3ncc(c3n2)NC(=O)CCOc2ccc(F)cc21 [Compound T-1] fall at or above the 2 h mark?
Found: 0.0

Data provenance: patent US11358973B2
